test system: Neutrophil; experiment: Inhibition of 3 nM PMA-stimulated superoxide anion generation in rat neutrophils; assay type: functional, cell-based; settings: Rattus norvegicus, Neutrophil
reported_property: IC50

Query: Answer with the recorded IC50 of c1ccc2c(c1)[I+]c1ccccc1-2 [DIPHENYLENEIODONIUM CHLORIDE] only.
Reply: 3.3 µM

Query: Answer with the recorded IC50 of COc1ccc(OC)c(C(=O)/C=C/c2ccc(C)o2)c1 only.
Reply: > 30 µM

Query: Answer with the recorded IC50 of COc1ccc(OC)c(C(=O)/C=C/c2cccs2)c1 only.
Reply: > 30 µM

Query: Answer with the recorded IC50 of COc1ccc(OC)c(C(=O)/C=C/c2ccc(OC/C=C/c3ccccc3)cc2)c1 only.
Reply: > 10 µM

Query: Answer with the recorded IC50 of COc1ccc(OC)c(C(=O)/C=C/c2ccc(Br)o2)c1 only.
Reply: > 30 µM

Query: Answer with the recorded IC50 of COc1ccc(OC)c(C(=O)/C=C/c2ccc(C)s2)c1 only.
Reply: > 30 µM

Query: Answer with the recorded IC50 of COc1ccc(OC)c(C(=O)/C=C/c2ccco2)c1 only.
Reply: > 30 µM

Source: ChEMBL document CHEMBL1147846
